Where do these numbers come from? They come from patent US20220088148A1.

- system-name: human GCG receptor (human, UniProt P47871 26-477)
- Sequence (P47871 26-477): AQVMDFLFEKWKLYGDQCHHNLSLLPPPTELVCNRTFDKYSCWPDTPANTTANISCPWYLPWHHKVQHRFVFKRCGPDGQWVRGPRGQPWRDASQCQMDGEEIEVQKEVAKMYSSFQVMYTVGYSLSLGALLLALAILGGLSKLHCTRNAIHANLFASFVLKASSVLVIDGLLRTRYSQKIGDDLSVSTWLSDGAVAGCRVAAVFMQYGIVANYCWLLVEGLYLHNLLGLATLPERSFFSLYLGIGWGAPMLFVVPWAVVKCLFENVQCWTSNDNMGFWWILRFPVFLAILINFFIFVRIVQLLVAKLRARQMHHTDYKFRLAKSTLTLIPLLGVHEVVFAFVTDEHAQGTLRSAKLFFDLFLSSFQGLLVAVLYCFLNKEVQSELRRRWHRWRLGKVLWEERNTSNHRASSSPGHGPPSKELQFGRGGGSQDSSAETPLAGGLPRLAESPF
- measurement-protocol: cell-based or functional assay
Bridges are numbered along the chain shown (N, C = ends). Where no end group is shown, it is not given here. [ ]: non-standard residue; d: D form. The star is where a group is joined. Acetyl(2-(4-imidazolyl)) = O=C(Cc1c[nH]cn1)*; Aib = CC(C)(N)C(=O)O
measured-attribute: In vitro activity (%) vs. Glucagon, cAMP EC50
The response must be a number in % with no trailing unit.

{"binder": "Y[Aib]QGTFTSDYSKCLDEKRAKDFVQWLLDHHPSSGQPPPS (bridge 16-20; ends not checked) [triple agonist of SEQ ID NO: 70]", "units-text": "%", "reported-result": 71.3}
{"binder": "H[Aib]QGTFTSDYSKYLDEKAQKEFVQWLLDTC (bridge 16-20) [triple agonist of SEQ ID NO: 30]", "units-text": "%", "reported-result": 0.7}
{"binder": "Y[Aib]QGTFTSDYSKYLDECRAKDFVQWLLDHHPSSGQPPPS (bridge 16-20; ends not checked) [triple agonist of SEQ ID NO: 66]", "units-text": "%", "reported-result": 172}
{"binder": "Y[Aib]QGTFTSDYSKYLDECAAKEFVQWLLDHHPSSGQPPPS (bridge 16-20; ends not checked) [triple agonist of SEQ ID NO: 64]", "units-text": "%", "reported-result": 60.1}
{"binder": "Y[Aib]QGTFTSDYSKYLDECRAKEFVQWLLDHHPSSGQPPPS (bridge 16-20) [triple agonist of SEQ ID NO: 21]", "units-text": "%", "reported-result": 267}

GET /value?item= [Acetyl(2-(4-imidazolyl))][Aib]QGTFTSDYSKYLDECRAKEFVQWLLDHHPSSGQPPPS (bridge 16-20; ends not checked) [triple agonist of SEQ ID NO: 73] &field=In vitro activity (%) vs. Glucagon, cAMP EC50 returns 5.4

Just so you know, measured In vitro activity (%) vs. Glucagon, cAMP EC50 for Y[Aib]QGTFTSDYSKALDEKAAKEFVNWLLDHHPSSGQPPPSC (bridge 16-20; ends not checked) [triple agonist of SEQ ID NO: 98] came out at 8.2

According to the records, this binder H[Aib]EGTFTSDYSIAMDEIHQKDFVDWLLAEC (bridge 16-20; ends not checked) [triple agonist of SEQ ID NO: 54] displays In vitro activity (%) vs. Glucagon, cAMP EC50 of 1.4
